Reference source for all entries: patent US20240002497A1

# key: entry, value: EC50
target: T1, muNav1.7α (murine, UniProt Q62205 1-1984); assay: binding FACS, HEK JmpIn
T1 construct: HEK JmpIn cells; also called murine Nav1.7α
quantityName: EC50 (nM)

- F010301875 (VHH, also called F0103464B09(L11V, F62S, S68T, T79Y, R81Q, S82aN, N82bS, K83R, G88A, V89L)) VHH: EVQLVESGGGVVQPGGSLRLSCATTSRAFIRDVFTGWYRRVPGKERELVARIYNGGNTNYADSAKGRFTISRDNAKKMVYLQMNSLRPEDTALYYCLFSGTINTGREYRSGDYWGQGTLVTVSS: 14
- F010301873 (VHH, also called F0103464B09(L11V, R39Q, S68T, T79Y, R81Q, S82aN, N82bS, K83R, G88A, V89L)) VHH: EVQLVESGGGVVQPGGSLRLSCATTSRAFIRDVFTGWYRQVPGKERELVARIYNGGNTNYADFAKGRFTISRDNAKKMVYLQMNSLRPEDTALYYCLFSGTINTGREYRSGDYWGQGTLVTVSS: 42
- F010301874 (VHH, also called F0103464B09(L11V, V40A, S68T, T79Y, R81Q, S82aN, N82bS, K83R, G88A, V89L)) VHH: EVQLVESGGGVVQPGGSLRLSCATTSRAFIRDVFTGWYRRAPGKERELVARIYNGGNTNYADFAKGRFTISRDNAKKMVYLQMNSLRPEDTALYYCLFSGTINTGREYRSGDYWGQGTLVTVSS: 18
- F010302339 (VHH) VHH: EVQLVESGGGVVQPGGSLRLSCAASHRAFIRDVFTGWYRRAPGKQRELVARIYEGGNTQYADSAKGRFTISRDNAKKTVYLQMNSLRPEDTALYYCLFSGTISTGREYRSGDYWGQGTLVTVSS: 8.7
- F010302347 (VHH) VHH: EVQLVESGGGVVQPGGSLRLSCAASHRAFIRDVFTGWYRQAPGKQRELVARIYEGGNTQYADSAKGRFTISRDNAKKTVYLQMNSLRPEDTALYYCLFSGTISTGREYRSGDYWGQGTLVTVSS: 14
- F010301871 (VHH, also called F0103464B09(L11V, T24A, S68T, T79Y, R81Q, S82aN, N82bS, K83R, AG88, V89L)) VHH: EVQLVESGGGVVQPGGSLRLSCAATSRAFIRDVFTGWYRRVPGKERELVARIYNGGNTNYADFAKGRFTISRDNAKKMVYLQMNSLRPEDTALYYCLFSGTINTGREYRSGDYWGQGTLVTVSS: 24
